# Test system: human red blood cells (RBCs)
# ASSAY_TEXT: Hemolysis assay
# Assay type: cell-based
# TEST_CONDITIONS: red cells of human, 1 h, 256
Where a SMILES comes first, the peptide text is derived from it.
Catalogue of Percentage of hemolysis at 256 μg/mL values
The figure you give is taken to be in %; do not add the unit.

Some compounds with known Percentage of hemolysis at 256 μg/mL results, for comparison:
CC[C@H](C)[C@H](NC(=O)[C@H](CCCCN)NC(=O)[C@H](CCCCN)NC(=O)[C@@H](NC(=O)[C@@H](NC(=O)[C@H](CC(=O)O)NC(=O)[C@H](C)NC(=O)[C@H](CC(C)C)NC(=O)CN)[C@@H](C)CC)[C@@H](C)CC)C(=O)N[C@@H](C)C(=O)N[C@@H](CCC(=O)O)C(=O)N[C@@H](CO)C(=O)N[C@@H](Cc1ccccc1)C(N)=O [Peptide F3A] (H-GLADIIKKIAESF-NH2) ... 0.3
CC[C@H](C)[C@H](NC(=O)[C@H](CCCCN)NC(=O)[C@H](CCCCN)NC(=O)[C@@H](NC(=O)[C@@H](NC(=O)[C@H](CC(=O)O)NC(=O)[C@H](Cc1ccccc1)NC(=O)[C@H](CC(C)C)NC(=O)CN)[C@@H](C)CC)[C@@H](C)CC)C(=O)N[C@@H](C)C(=O)N[C@@H](CCC(=O)O)C(=O)N[C@@H](C)C(=O)N[C@@H](Cc1ccccc1)C(N)=O [Peptide S12A] (H-GLFDIIKKIAEAF-NH2) ... 23.5

Next:
input: // returns reported Percentage of hemolysis at 256 μg/mL for input CC[C@H](C)[C@H](NC(=O)[C@H](CCCCN)NC(=O)[C@H](CCCCN)NC(=O)[C@H](C)NC(=O)[C@@H](NC(=O)[C@H](CC(=O)O)NC(=O)[C@H](Cc1ccccc1)NC(=O)[C@H](CC(C)C)NC(=O)CN)[C@@H](C)CC)C(=O)N[C@@H](C)C(=O)N[C@@H](CCC(=O)O)C(=O)N[C@@H](CO)C(=O)N[C@@H](Cc1ccccc1)C(N)=O [Peptide I6A] (H-GLFDIAKKIAESF-NH2)
output: 0.1
